B1: PKD2L1 (parent)
chain: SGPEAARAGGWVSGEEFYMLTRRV

Variants of: B1
ASSAY_PROTOCOL: protein stability index of a GFP-peptide fusion (GPS, HEK-293T) (PSI 1-6); higher = more stable;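 also: lentivirally expressed fusions sorted by FACS into six bins by GFP to DsRed ratio, PSI derived from sequencing read proportions per bin multiplied by bin number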
SETTINGS: c terminus: a fixed tail appended
Kindly supply the reported protein stability index values for the records listed here.
Answers are plain numbers.

Use these answered entries as a reference point.
E4H    2.28
L20I    2.01

Kindly give each listed record's protein stability index.
1. E16S
2. A8M
3. R7L
4. W11G

Result:
1: 2.73; 2: 1.8; 3: 2.58; 4: 3.28

Report protein stability index for every entry below.
1. T21E
2. A8T
3. Y18V

Result:
1. 3.29
2. 2.24
3. 2.89

State recorded protein stability index for all listed variants.
1. E16I
2. R22Y

Result:
1: 2.23; 2: 2.41
